Data credit: the supplement of paper PMC6757056

B1: library; a variant is named by its letters at N, in order (parent)
chain: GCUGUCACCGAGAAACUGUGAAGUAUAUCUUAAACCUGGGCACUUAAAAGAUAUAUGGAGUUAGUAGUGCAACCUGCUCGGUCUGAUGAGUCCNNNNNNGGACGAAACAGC

- Variants of: B1
- Assay notes: FACS-Seq fitted mean relative fluorescence mCherry/BFP without ligand (log10 relative fluorescence); HEK293T; ligand: cyclic di-GMP (c-di-GMP-II aptamer); higher = higher reporter protein expression
- Conditions used: ligand present: no
Measurement name: FACS-Seq fitted mean (log10)

Some entries whose results are on file:
{"Residue codes": "GCUGUCACCGAGAAACUGUGAAGUAUAUCUUAAACCUGGGCACUUAAAAGAUAUAUGGAGUUAGUAGUGCAACCUGCUCGGUCUGAUGAGUCCCCACAUGGACGAAACAGC", "FACS-Seq fitted mean (log10)": 0.0115}
{"Residue codes": "GCUGUCACCGAGAAACUGUGAAGUAUAUCUUAAACCUGGGCACUUAAAAGAUAUAUGGAGUUAGUAGUGCAACCUGCUCGGUCUGAUGAGUCCUCCCUGGGACGAAACAGC", "FACS-Seq fitted mean (log10)": 0.234}
{"Residue codes": "GCUGUCACCGAGAAACUGUGAAGUAUAUCUUAAACCUGGGCACUUAAAAGAUAUAUGGAGUUAGUAGUGCAACCUGCUCGGUCUGAUGAGUCCGACGAUGGACGAAACAGC", "FACS-Seq fitted mean (log10)": -0.37}

Quick one: FACS-Seq fitted mean (log10) for `GCUGUCACCGAGAAACUGUGAAGUAUAUCUUAAACCUGGGCACUUAAAAGAUAUAUGGAGUUAGUAGUGCAACCUGCUCGGUCUGAUGAGUCCAAGGGAGGACGAAACAGC` ?
-0.638

Which FACS-Seq fitted mean (log10) is listed for `GCUGUCACCGAGAAACUGUGAAGUAUAUCUUAAACCUGGGCACUUAAAAGAUAUAUGGAGUUAGUAGUGCAACCUGCUCGGUCUGAUGAGUCCGUAGAUGGACGAAACAGC` ?
-0.404

Query (variant): `GCUGUCACCGAGAAACUGUGAAGUAUAUCUUAAACCUGGGCACUUAAAAGAUAUAUGGAGUUAGUAGUGCAACCUGCUCGGUCUGAUGAGUCCAAAACGGGACGAAACAGC` ; field requested: FACS-Seq fitted mean (log10)
-0.442
